The following compounds are listed with their measured IC50 values.
Test system: MDA-MB-231
procedureSummary: Inhibition of the growth of MDA-MB 231 human breast cancer cells
Type: functional, cell-based

{"compound": "CCCCC1Cc2cc(O)ccc2-c2cc3cc(O)c(O)cc3n21 (stereo not drawn)", "IC50": "> 10 µM"}
{"compound": "CCCCC1Cc2cc(OC)ccc2-c2cc3cc(OC)c(OC)cc3n21 (stereo not drawn)", "IC50": "> 10 µM"}
{"compound": "CCCCC1Cc2cc(OC)ccc2-c2c(C(C)=O)c3ccc(OC)cc3n21 (stereo not drawn)", "IC50": "> 10 µM"}

---

System: MDA-MB-231
procedureSummary: Inhibition of the growth of MDA-MB 231 human breast cancer cells
Type: functional, cell-based
The following compounds are listed with their measured IC50 values.

{"compound": "CCCC1Cc2cc(OC)ccc2-c2c(C=O)c3ccc(OC)cc3n21 (stereo not drawn)", "systemTested": "MDA-MB-231", "IC50": "> 10 µM"}
{"compound": "CCCCC1Cc2cc(OC)ccc2-c2c(C=O)c3cc(OC)ccc3n21 (stereo not drawn)", "systemTested": "MDA-MB-231", "IC50": "> 10 µM"}
{"compound": "CCCCC1Cc2cc(OC)ccc2-c2c(/C=N/O)c3ccc(OC)cc3n21 (stereo not drawn)", "systemTested": "MDA-MB-231", "IC50": "> 10 µM"}
